Ref: patent US11873298B2

Target: SCD5 (Homo sapiens, UniProt Q86SK9)
Construct: host or cells: S. cerevisiae ole1Δ strain (W303 pdr1Δ pdr3Δ background), plasmid pRS316 with TDH3 promoter and CYC1 terminator
Sequence (Q86SK9 1-330): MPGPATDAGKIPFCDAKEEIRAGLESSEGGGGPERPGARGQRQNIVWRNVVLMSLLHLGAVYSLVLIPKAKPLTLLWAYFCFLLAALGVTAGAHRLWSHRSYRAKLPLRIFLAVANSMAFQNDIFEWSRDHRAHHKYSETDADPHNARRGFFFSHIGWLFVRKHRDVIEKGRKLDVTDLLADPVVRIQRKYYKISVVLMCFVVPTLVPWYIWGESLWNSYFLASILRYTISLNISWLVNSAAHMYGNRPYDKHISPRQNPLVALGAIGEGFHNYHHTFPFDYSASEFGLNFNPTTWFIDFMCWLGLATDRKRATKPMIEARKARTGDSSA
Assay: Growth inhibition of humanized yeast strain expressing SCD5 as sole desaturase
Format: cell-based
Conditions: humanized yeast strain, 40 h
parameter: pIC50
# pIC50 = -log10(concentration in molar units)

Qu. Which pIC50 is reported for this compound? CC(C)(C)OC(=O)N1CCN(c2noc(-c3ccc4cnn(C5COC5)c4c3)n2)CC(F)(F)C1
Ans. 8.00

Qu. Which pIC50 is reported for this compound? Cc1nn(C)c2cc(-c3nc(C4CCN(S(=O)(=O)C5CC5)CC4)no3)ccc12
Ans. 5.18

Qu. Which pIC50 is reported for this compound? CC(C)(C)OC(=O)N1CCN(c2noc(-c3ccc4c(c3)C3(CCC3)OC4)n2)CC1
Ans. 5.92

Qu. Which pIC50 is reported for this compound? O=C(C1CC1)N1CCC(c2noc(-c3ccc4oc(=O)n(C5COC5)c4c3)n2)CC1
Ans. 6.73

Qu. Which pIC50 is reported for this compound? CC(C)n1ncc2ccc(-c3noc(N4CCn5c(Cl)cnc5C4)n3)cc21
Ans. 5.03

Qu. Which pIC50 is reported for this compound? O=C(N1CCN(c2noc(-c3ccnc(NC4COC4)c3)n2)CC1)C1(F)CC1
Ans. 4.71

---

Biological target: Ole1 (Saccharomyces cerevisiae)
Construct: expressed in transfected cells; host or cells: S. cerevisiae ole1Δ strain (W303 pdr1Δ pdr3Δ background), plasmid pRS316 with TDH3 promoter and CYC1 terminator
Sequence (P21147 whole entry): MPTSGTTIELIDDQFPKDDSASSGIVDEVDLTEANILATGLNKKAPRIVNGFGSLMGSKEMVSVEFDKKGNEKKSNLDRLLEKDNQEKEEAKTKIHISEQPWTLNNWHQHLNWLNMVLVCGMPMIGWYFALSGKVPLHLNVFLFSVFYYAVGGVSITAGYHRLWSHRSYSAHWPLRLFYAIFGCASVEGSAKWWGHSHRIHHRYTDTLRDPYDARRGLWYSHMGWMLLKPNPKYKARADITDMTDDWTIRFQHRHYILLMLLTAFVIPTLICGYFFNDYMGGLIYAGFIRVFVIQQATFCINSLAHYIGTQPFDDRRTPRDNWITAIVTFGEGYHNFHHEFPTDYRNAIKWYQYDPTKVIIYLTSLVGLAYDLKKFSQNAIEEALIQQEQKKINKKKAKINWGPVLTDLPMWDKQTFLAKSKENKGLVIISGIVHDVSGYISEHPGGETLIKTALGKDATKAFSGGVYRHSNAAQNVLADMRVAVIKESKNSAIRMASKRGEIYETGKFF
Experiment: Growth inhibition of yeast strain expressing Ole1 as sole desaturase
Assay type: cell-based
Conditions: yeast strain expressing Ole1 as sole desaturase
Procedure: Strain oleΔ (yeast ole1 deletion mutant) was constructed by deleting OLE1 with NAT-MX6 in BY4741, amplifying the deletion cassette from the genomic DNA of the resulting strain with primers flanking the ORF by 1000 bp upstream and downstream, transforming the resulting deletion cassette into W303 pdr1Δ pdr3Δ, and plating transformants on YPD media containing G418 (200 μg/mL) and nourseothricin ([…]) with 0.01% TWEEN®-20 and 0.5 mM oleic and palmitoleic acids. […]
# OLE1 % Max Inhibition per entry

Below are worked cases with known answers.
| molecule | OLE1 % Max Inhibition |
| --- | --- |
| COc1ccc(C(=O)NCC(=O)N2CCC(c3nc(-c4ccc5c(C)nn(C)c5c4)no3)CC2)nc1 | 2.67% |
| CCOc1ccc(-c2noc(N3CCC(C(=O)N4CCO[C@@H](c5ccccc5)C4)CC3)n2)cc1OC | 10.39% |
| Cc1nn(C)c2cc(-c3noc(N4CCN(C(=O)c5ccccc5)CC4)n3)ccc12 | 94.41% |
| Cc1nn(C)c2cc(-c3noc(C4CCN(C(=O)CN5Cc6ccccc6C5=O)CC4)n3)ccc12 | 2.01% |
| COc1ccc(-c2noc(C3CCN(C(=O)C4CC(=O)N(C5CCCCC5)C4)CC3)n2)cc1OC (centres unmarked) | 92.36% |

Qu. Which OLE1 % Max Inhibition is reported for this molecule? Cc1nn(C)c2cc(-c3noc(N4CCN(C(=O)c5ccccc5C(F)(F)F)CC4)n3)ccc12
Ans. 18.4%

Qu. Which OLE1 % Max Inhibition is reported for this molecule? CCOc1ccc(-c2noc(C3CCN(C(=O)CN4Cc5ccc(F)cc5C4=O)CC3)n2)cc1OC
Ans. 40.70%

Qu. Which OLE1 % Max Inhibition is reported for this molecule? Cc1nn(C)c2cc(-c3noc(C4CCN(C(=O)c5ccccc5C(F)(F)F)CC4)n3)ccc12
Ans. 24.43%
